Reported values of IC50 for individual entries
# target-desc: BIR2 domain of XIAP (Homo sapiens, UniProt P98170, C202A/C213G)
# Construct: 6× Histidine-tagged BIR2 domain, corresponding to amino acids 124-240 of XIAP
# Sequence (P98170 with tags, fused parts or gaps C202A/C213G): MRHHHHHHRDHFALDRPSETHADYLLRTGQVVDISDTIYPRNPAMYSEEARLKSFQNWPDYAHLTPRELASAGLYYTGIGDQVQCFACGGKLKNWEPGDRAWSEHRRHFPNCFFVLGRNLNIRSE
# assay-explanation: TR-FRET assay for BIR2 (inhibition of binding of XIAP BIR2 domain to SMAC-derived Peptide A)
# measurement-context: 6x Histidine-tagged BIR2 domain (amino acids 124-240 of XIAP) 10 nM, Peptide A 20 nM
recorded-metric: IC50 (nM)

1) CN[C@@H](C)C(=O)N[C@H](C(=O)N1c2ncccc2C[C@H]1C(=O)Nc1ccc(F)cc1F)C(C)C	35.1
2) CN[C@@H](C)C(=O)N[C@H](C(=O)N1c2ncccc2C[C@H]1C(=O)Nc1c(C)cccc1C)C(C)C	44.9
3) CN[C@@H](C)C(=O)N[C@H](C(=O)N1c2ncccc2C[C@H]1C(=O)Nc1c(F)cccc1Cl)C(C)C	21.5

Value source: patent US9309248B2
